Just for reference, PubChem BioAssay (NCI) is where these values come from.

Parameter GI50, tested on K-562 leukemia, listed per item.

Molecule	Observed result
Nc1nc(N)c2cc(CNc3ccc(Cl)c(Cl)c3)ccc2n1	58.8 nM
COc1ccc(CN2c3ccccc3Sc3ccccc32)cc1F	383 nM
CN(C)CC(C(=O)c1ccccc1)c1ccccc1 (stereo unspecified)	483 nM
CCOc1ccc(Cc2nccc3cc(OCC)c(OCC)cc23)cc1OCC	3540 nM

IN: I'd like to know its GI50. The molecule in question is Cc1cccc(CN(C)c2ccc(CO)c(Cl)c2)c1
OUT: 8760 nM

IN: Entry c1cncc(CNc2ccccc2-c2nnc(Nc3ccc4c(c3)OCO4)o2)c1 has what GI50?
OUT: 47.4 nM
